Reference source: ChEMBL document CHEMBL5223181

Assay: Prodrug conversion in C57BL/6 mouse plasma assessed as (S)-2-(2-chloro-6-methylbenzamido)-3-(4-(1,3,6-trimethyl-2,4-dioxo-1,2,3,4-tetrahydropyrimidin-5-yl)phenyl)propanoic acid metabolite level at 100 mg/kg, po and measured after 6 hrs LC-MS/MS analysis
Format: ADME, organism-based
Conditions: in vivo
QUANTITY: Drug metabolism

Prompt line: I am curious: what Drug metabolism value has been reported for "Cc1cccc(Cl)c1C(=O)N[C@@H](Cc1ccc(-c2c(C)n(C)c(=O)n(C)c2=O)cc1)C(=O)O[C@H]1CO[C@H]2[C@@H]1OC[C@@H]2O" ?
Response line: 200 ng/mL

* * *

Experiment: AUC (0-t) in C57BL/6 mouse at 80 mg/kg, po and measured for 4 to 10 hrs by LC-MS/MS analysis
Format: ADME, organism-based
Design: time upper 10 hrs, dose 80 mg/kg, time lower 4 hrs, route po
Details: in vivo
QUANTITY: AUC(0-t) (ng·h/mL)
Write the value in ng·h/mL as a bare number.

Prompt line: I am curious: what AUC(0-t) value has been reported for "COc1cc2ncnc(Nc3ccc(O[C@H]4CO[C@H]5[C@@H]4OC[C@@H]5O)c(Cl)c3)c2cc1OC" ?
Response line: 44500

* * *

Assay: Prodrug conversion in C57BL/6 mouse plasma assessed as(S)-2-(2-chloro-6-methylbenzamido)-3-(4-(1,3,6-trimethyl-2,4-dioxo-1,2,3,4-tetrahydropyrimidin-5-yl)phenyl)propanoic acid metabolite level at 100 mg/kg, po and measured after 3 hrs LC-MS/MS analysis
Format: ADME, organism-based
Conditions: in vivo
QUANTITY: Drug metabolism (ng/mL)
Write the value in ng/mL as a bare number.

Prompt line: I am curious: what Drug metabolism value has been reported for "Cc1cccc(Cl)c1C(=O)N[C@@H](Cc1ccc(-c2c(C)n(C)c(=O)n(C)c2=O)cc1)C(=O)O[C@H]1CO[C@H]2[C@@H]1OC[C@@H]2O" ?
Response line: 500

* * *

logD at 16 h, 10000 µM reference
Test: Octanol/water partition coefficient, logD of the compound at pH 7.4 at 10 mM incubated for 16 hrs with shaking by HPLC-UV analysis
Assay type: physicochemical
Enter a number only.

Prompt line: I am curious: what logD at 16 h, 10000 µM value has been reported for "Cc1cccc(Cl)c1C(=O)N[C@@H](Cc1ccc(-c2c(C)n(C)c(=O)n(C)c2=O)cc1)C(=O)O" ?
Response line: -1.1

Prompt line: I am curious: what logD at 16 h, 10000 µM value has been reported for "Cc1cccc(Cl)c1C(=O)N[C@@H](Cc1ccc(-c2c(C)n(C)c(=O)n(C)c2=O)cc1)C(=O)O[C@H]1CO[C@H]2[C@@H]1OC[C@@H]2O" ?
Response line: 1.2

* * *

Assay: Solubility in simulated intestinal fluid at pH 6.8 at 30 uM incubated for 90 mins by HPLC-UV analysis
Assay type: ADME
QUANTITY: solubility at 1.5 h, 30 µM

[
  {
    "COMPOUND STRUCTURE": "Cc1cccc(Cl)c1C(=O)N[C@@H](Cc1ccc(-c2c(C)n(C)c(=O)n(C)c2=O)cc1)C(=O)O[C@H]1CO[C@H]2[C@@H]1OC[C@@H]2O",
    "solubility at 1.5 h, 30 µM": "99.6 µg/mL"
  }
]

Prompt line: I am curious: what solubility at 1.5 h, 30 µM value has been reported for "COc1cc2ncnc(Nc3ccc(F)c(Cl)c3)c2cc1OC" ?
Response line: 51.7 µg/mL

Prompt line: I am curious: what solubility at 1.5 h, 30 µM value has been reported for "Cc1cccc(Cl)c1C(=O)N[C@@H](Cc1ccc(-c2c(C)n(C)c(=O)n(C)c2=O)cc1)C(=O)O" ?
Response line: 91.9 µg/mL

Prompt line: I am curious: what solubility at 1.5 h, 30 µM value has been reported for "COc1cc2ncnc(Nc3ccc(O[C@H]4CO[C@H]5[C@@H]4OC[C@@H]5O)c(Cl)c3)c2cc1OC" ?
Response line: 65.4 µg/mL

* * *

Assay: Solubility in simulated gastric fluid at pH 1.2 at 30 uM incubated for 90 mins by HPLC-UV analysis
Type: ADME
QUANTITY: solubility at 1.5 h, 30 µM (µg/mL)
Write the value in µg/mL as a bare number.

For orientation, consider the following solved cases.
[
  {
    "COMPOUND STRUCTURE": "Cc1cccc(Cl)c1C(=O)N[C@@H](Cc1ccc(-c2c(C)n(C)c(=O)n(C)c2=O)cc1)C(=O)O",
    "UNITS LABEL": "µg/mL",
    "solubility at 1.5 h, 30 µM": 94.7
  },
  {
    "COMPOUND STRUCTURE": "COc1cc2ncnc(Nc3ccc(O[C@H]4CO[C@H]5[C@@H]4OC[C@@H]5O)c(Cl)c3)c2cc1OC",
    "UNITS LABEL": "µg/mL",
    "solubility at 1.5 h, 30 µM": 87.9
  }
]

Prompt line: I am curious: what solubility at 1.5 h, 30 µM value has been reported for "Cc1cccc(Cl)c1C(=O)N[C@@H](Cc1ccc(-c2c(C)n(C)c(=O)n(C)c2=O)cc1)C(=O)O[C@H]1CO[C@H]2[C@@H]1OC[C@@H]2O" ?
Response line: 126

Prompt line: I am curious: what solubility at 1.5 h, 30 µM value has been reported for "COc1cc2ncnc(Nc3ccc(F)c(Cl)c3)c2cc1OC" ?
Response line: 49.4

* * *

Experiment: Cmax in C57BL/6 mouse at 61 mg/kg, po and measured upto 24 hrs by LC-MS/MS analysis
Format: ADME, organism-based
Set-up: dose 61 mg/kg, time < 24 hrs, route po
Settings: in vivo
QUANTITY: Cmax (ng/mL)
Write the value in ng/mL as a bare number.

Prompt line: I am curious: what Cmax value has been reported for "COc1cc2ncnc(Nc3ccc(F)c(Cl)c3)c2cc1OC" ?
Response line: 7440

* * *

Assay: Terminal half life in C57BL/6 mouse at 61 mg/kg, po and measured upto 24 hrs by LC-MS/MS analysis
Format: ADME, organism-based
Settings: in vivo, read-out: beta t1/2 (converted)
half-life reference
Returns: string containing the numeric result and its unit.

[
  {
    "COMPOUND STRUCTURE": "COc1cc2ncnc(Nc3ccc(O[C@H]4CO[C@H]5[C@@H]4OC[C@@H]5O)c(Cl)c3)c2cc1OC",
    "QUANTITY": "half-life",
    "ASSAY VALUE": "1.19 h"
  }
]

Moving on to another compound below.
Prompt line: I am curious: what half-life value has been reported for "COc1cc2ncnc(Nc3ccc(F)c(Cl)c3)c2cc1OC" ?
Response line: 1.9 h

* * *

Test: Solubility of compound in PBS at pH 7.4 at 30 uM incubated for 90 mins by HPLC-UV analysis
Type: physicochemical
QUANTITY: solubility at 1.5 h, 30 µM (µg/mL)
Write the value in µg/mL as a bare number.

For orientation, consider the following solved cases.
[
  {
    "COMPOUND STRUCTURE": "COc1cc2ncnc(Nc3ccc(O[C@H]4CO[C@H]5[C@@H]4OC[C@@H]5O)c(Cl)c3)c2cc1OC",
    "QUANTITY": "solubility at 1.5 h, 30 µM",
    "ASSAY VALUE": 19.8
  },
  {
    "COMPOUND STRUCTURE": "Cc1cccc(Cl)c1C(=O)N[C@@H](Cc1ccc(-c2c(C)n(C)c(=O)n(C)c2=O)cc1)C(=O)O[C@H]1CO[C@H]2[C@@H]1OC[C@@H]2O",
    "QUANTITY": "solubility at 1.5 h, 30 µM",
    "ASSAY VALUE": 107
  },
  {
    "COMPOUND STRUCTURE": "COc1cc2ncnc(Nc3ccc(F)c(Cl)c3)c2cc1OC",
    "QUANTITY": "solubility at 1.5 h, 30 µM",
    "ASSAY VALUE": 1.3
  }
]

Moving on to another compound below.
Prompt line: I am curious: what solubility at 1.5 h, 30 µM value has been reported for "Cc1cccc(Cl)c1C(=O)N[C@@H](Cc1ccc(-c2c(C)n(C)c(=O)n(C)c2=O)cc1)C(=O)O" ?
Response line: 95.4

* * *

Test: Oral bioavailability in C57BL/6 mouse plasma at 63.5 mg/kg and measured upto 24 hrs by LC-MS/MS analysis
Type: ADME, organism-based
QUANTITY: bioavailability (%)
Write the value in % as a bare number.

Prompt line: I am curious: what bioavailability value has been reported for "Cc1cccc(Cl)c1C(=O)N[C@@H](Cc1ccc(-c2c(C)n(C)c(=O)n(C)c2=O)cc1)C(=O)O[C@H]1CO[C@H]2[C@@H]1OC[C@@H]2O" ?
Response line: 12
